Each entry below carries its reported % Inhibition.
system: Plasmodium falciparum; assay: Primary screen in NF54 nanoGlo assay, in single point, at 2uM, 72h; format: functional, Erythrocyte; conditions: timepoint 72 hour
The whole screen tested about 150,000 compounds, of which about 540 (0.36%) showed an effect of 50% or more. Only a selection was taken, and strong results are over-represented in it overall.
The reply should contain only the number, in %.

Consider the following illustrative entries.
> print(dat)
                                   compound  quantitativeresult
1  O=C(Cc1c[nH]c2ccccc12)N1CCN(Cc2nnn3c2CO[C@H](c2cccc(F)c2)C3)CC1                  -6
2  O=C(c1ccccc1)c1cc(Cl)ccc1NC(=O)[C@H]1CC(=O)N(c2ccc(F)cc2)C1                  56
3  CCCS(=O)(=O)NC[C@H]1C[C@@H]2CCN1C[C@@H]2c1cc(C(CC)CC)nc(-c2ccncc2)n1                  35
4  COc1cccc(CNC(=O)N2CC[C@@H]3CCN(C)C[C@@H]32)n1                  88
5  COCCn1cc(C(=O)N[C@H]2C[C@@](CO)(c3ccccc3)C2)nn1                   1

Problem: What does the data say about its % Inhibition? Entry: CC(C)CCC(=O)N1CCC2CCN(C)CC21 (centres undefined)
Solution: -3

Problem: What does the data say about its % Inhibition? Entry: Cc1ccc(CN2CCN(C(=O)Cc3cccnc3)[C@H]3CS(=O)(=O)C[C@H]32)o1
Solution: 5

Problem: What does the data say about its % Inhibition? Entry: c1cc(N2CC[C@@]3(CCCNC3)C2)c2sccc2n1
Solution: 98

Problem: What does the data say about its % Inhibition? Entry: Fc1cnc(N2C[C@@H](c3ccccc3)[C@@H]3[C@H]2C2CCN3CC2)nc1
Solution: -13

Problem: What does the data say about its % Inhibition? Entry: CCC(CC)c1cc([C@H]2CN3CC[C@H]2C[C@@H]3CNS(=O)(=O)Cc2ccccc2)nc(-c2ccncc2)n1
Solution: 75

Problem: What does the data say about its % Inhibition? Entry: O=C(COc1ccccc1)N1CCCCC[C@@H]1CN1CCCC1
Solution: 1

Problem: What does the data say about its % Inhibition? Entry: c1cc2c(c(-c3cnccn3)c1)CCNC2
Solution: -4

Problem: What does the data say about its % Inhibition? Entry: Cc1ccc(C)n1[C@@H](Cc1cnc[nH]1)C(=O)O
Solution: -1

Problem: What does the data say about its % Inhibition? Entry: N#Cc1ccc(N[C@H]2CCN(C3CCOCC3)C2=O)cc1C(F)(F)F
Solution: 1

Problem: What does the data say about its % Inhibition? Entry: O=C(c1ccncc1F)N1C[C@H]2CC[C@@H](C1)N(CC1CC1)C2
Solution: 2

Problem: What does the data say about its % Inhibition? Entry: C=CCCC(CN1C[C@H]2CC=CC[C@H]2C1)Oc1ccnc(C)n1 (some centres undefined)
Solution: 3

Problem: What does the data say about its % Inhibition? Entry: Clc1cccc2c(N3CC[C@]4(CCNC4)C3)ccnc12
Solution: 23

Problem: What does the data say about its % Inhibition? Entry: C=CCN(C)C[C@H]1CN2CC[C@H]1C[C@@H]2CNC(=O)Nc1ccc(OC(F)(F)F)cc1
Solution: 57
